- ASSAY_PROTOCOL: Stability of the compound in human plasma assessed as half life
- Assay type: ADME, cell-free
MEASURED_ENDPOINT: half-life

chemical_string=[2H]C([2H])([2H])n1ncc2cc(-c3nc(NCc4cccc(F)c4)[nH]c3-c3cccc(C)n3)ccc21 measured_value="> 2 h"
chemical_string=Cc1cccc(-c2[nH]c(NCc3cccc(F)c3)nc2-c2ccc3c(cnn3C)c2)n1 measured_value="> 2 h"

---

- ASSAY_PROTOCOL: Half life in BALB/c mouse at 10 mg/kg, po
- Format: ADME, organism-based
- CONDITION_PARAMETERS: in vivo
Each entry below lists one item and its recorded half-life value.
MEASURED_ENDPOINT: half-life (h)

chemical_string=Cc1cccc(-c2[nH]c(NCc3cccc(F)c3)nc2-c2ccc3c(cnn3C)c2)n1 measured_endpoint=half-life unit_abbreviation=h measured_value=1.6
chemical_string=[2H]C([2H])([2H])n1ncc2cc(-c3nc(NCc4cccc(F)c4)[nH]c3-c3cccc(C)n3)ccc21 measured_endpoint=half-life unit_abbreviation=h measured_value=1.6
